- Tested on: microfilariae of Dirofilaria immitis
- Protocol summary: Dirofilaria immitis, Microfilaria (DiMF) Assay
- Type: cell-based
- Details: read-out: D. immitis activity level (IC50 or MED)

Structure as smiles: FC(F)(F)c1cccnc1Nc1nc(-c2cc(C3CC3)ccn2)ns1
IC50: < 200 nM

Structure as smiles: Cc1cnc(Nc2nc(-c3cc(OC4COC4)ccn3)ns2)c(C(F)(F)F)c1
IC50: < 200 nM

Structure as smiles: COc1ccc(-c2nsc(Nc3ccc(C4CCCC4)cn3)n2)nc1
IC50: 500 to 5000 nM

Structure as smiles: Cc1ccnc(Nc2nc(-c3ncccc3C)ns2)c1
IC50: 200 to 500 nM

Structure as smiles: CC(C)Oc1ccc(-c2nsc(Nc3ncccc3N(C)C(=O)C3CCCC3)n2)nc1
IC50: 200 to 500 nM

Structure as smiles: FC(F)(F)c1ccc(Nc2nc(-c3ccccn3)ns2)nc1
IC50: < 200 nM

Structure as smiles: Cc1cccnc1Nc1nc(-c2ccc(OCC3CC3)cn2)ns1
IC50: 200 to 500 nM

Structure as smiles: CC(C)Oc1ccc(-c2nsc(Nc3ncccc3C3CC3)n2)nc1
IC50: < 200 nM

Structure as smiles: CC(C)Oc1cnc(-c2nsc(Nc3ncccc3C(=O)N(C)C)n2)cc1C(F)F
IC50: 200 to 500 nM

Structure as smiles: CC(=O)N1CCC(Oc2ccc(-c3nsc(Nc4ncccc4C)n3)nc2)CC1
IC50: 500 to 5000 nM

Structure as smiles: CC(C)Oc1ccc(-c2n[nH]c(Nc3ncccc3C(F)(F)F)n2)nc1
IC50: 500 to 5000 nM

Structure as smiles: O=C(NC1CC(F)(F)C1)c1ccc(Nc2nc(-c3ccc(OC4CC4)cn3)ns2)nc1
IC50: 500 to 5000 nM

Structure as smiles: COc1cccnc1-c1nsc(Nc2cc(C(F)(F)F)c(C(C)C)cn2)n1
IC50: 200 to 500 nM

Structure as smiles: CC(=O)N(C)c1cccnc1Nc1nc(-c2ccc(NC34CC(C3)C4)cn2)ns1
IC50: 500 to 5000 nM

Structure as smiles: CNc1cccnc1Nc1nc(-c2ccc(OC(C)C)cn2)ns1
IC50: 200 to 500 nM

Structure as smiles: CC(C)c1cccnc1Nc1nc(-c2ccc(OC3CC3)cn2)ns1
IC50: < 200 nM

Structure as smiles: CC(=O)N(C)c1cc(C(F)(F)F)cnc1Nc1nc(-c2ccc(OC(C)C)cn2)ns1
IC50: < 200 nM

Structure as smiles: FC(F)(F)c1ccnc(Nc2nc(-c3cc(C4CC4)ccn3)ns2)c1
IC50: < 200 nM

* * *

- Tested on: microfilariae of Dirofilaria immitis
- Protocol summary: Dirofilaria immitis, Microfilaria (DiMF) Assay
- Type: cell-based
- Details: read-out: D. immitis activity level (IC50 or MED)
pIC50: −log10 of the molar value.
Measured pIC50 by item

Structure as smiles: COc1ccc(-c2nsc(Nc3ccc(OC(C)C)cn3)n2)nc1
pIC50: 5.30 to 6.30
//
Structure as smiles: CC(C)c1ccnc(-c2nsc(Nc3ncccc3N(C)C(=O)C3CC3)n2)c1
pIC50: 5.30 to 6.30
//
Structure as smiles: CN(C)c1cccnc1Nc1nc(-c2ccc(OCC3CC3)cn2)ns1
pIC50: 5.30 to 6.30
//
Structure as smiles: Cc1cccnc1Nc1nc(-c2cnc(OC(C)C)cn2)ns1
pIC50: 5.30 to 6.30
//
Structure as smiles: CC(C)c1cnc(Nc2nc(-c3cc(OC4CC4)ccn3)ns2)cc1C(F)(F)F
pIC50: > 6.70
//
Structure as smiles: c1ccc(-c2ccnc(Nc3nc(-c4ccccn4)ns3)c2)cc1
pIC50: 6.30 to 6.70
//
Structure as smiles: Cc1ccnc(-c2nsc(Nc3ncccc3F)n2)c1
pIC50: 6.30 to 6.70
//
Structure as smiles: FC(F)(F)c1ccc(Nc2nc(-c3cc(OC4CCCCC4)ccn3)ns2)nc1
pIC50: > 6.70
//
Structure as smiles: COc1cnc(Nc2nc(-c3cc(C(N)=O)c(OC(C)C)cn3)ns2)c(C(F)(F)F)c1
pIC50: 5.30 to 6.30

* * *

- System: microfilariae of Dirofilaria immitis
- Protocol summary: Dirofilaria immitis, Microfilaria (DiMF) Assay
- Type: cell-based
- Details: read-out: D. immitis activity level (IC50 or MED)
pIC50: −log10 of the molar value.
Measured pIC50 by item
Parameter measured: pIC50

Molecule: CC(C)c1ccnc(-c2nsc(Nc3cc(C(F)(F)F)ccn3)n2)c1 [Compound 86]
Parameter measured: pIC50
Assay result: > 6.70
--
Molecule: CC(C)Oc1cnc(-c2nsc(Nc3ncc(C(C)C)cc3C(F)(F)F)n2)cc1C(=O)N(C)C [Compound 219]
Parameter measured: pIC50
Assay result: 6.30 to 6.70
--
Molecule: Cc1nccnc1Nc1nc(-c2ccc(OC(C)C)cn2)ns1 [Compound 135]
Parameter measured: pIC50
Assay result: 6.30 to 6.70
--
Molecule: CC(C)Oc1ccc(-c2nsc(Nc3ncccc3C(F)(F)F)n2)nc1 [Compound 54]
Parameter measured: pIC50
Assay result: > 6.70
--
Molecule: c1ccc(-c2nsc(Nc3ccc(N4CCCCC4)cn3)n2)nc1 [Cmpd 6]
Parameter measured: pIC50
Assay result: 5.30 to 6.30

* * *

- Test system: microfilariae of Dirofilaria immitis
- Protocol summary: Dirofilaria immitis, Microfilaria (DiMF) Assay
- Format: cell-based
- Details: read-out: D. immitis activity level (IC50 or MED)
Measured IC50 by item
Parameter measured: IC50

Compound: Cc1cccnc1-c1nsc(Nc2ccc(N3CCCC3)cn2)n1
Assay result: 500 to 5000 nM

Compound: CNc1cccnc1Nc1nc(-c2cc(C)ccn2)ns1
Assay result: 200 to 500 nM

Compound: Cc1cccnc1Nc1nc(-c2ccc(OC3CCN(C(=O)C(C)C)CC3)cn2)ns1
Assay result: 500 to 5000 nM

Compound: CN1CCC(Oc2ccc(-c3nsc(Nc4ncccc4C(F)(F)F)n3)nc2)CC1
Assay result: 500 to 5000 nM

Compound: COc1cnc(Nc2nc(-c3cc(C(=O)N(C)C)c(OC(C)C)cn3)ns2)c(C(F)(F)F)c1
Assay result: 200 to 500 nM

Compound: Cc1cccnc1Nc1nc(-c2cc(C#N)c(OC(C)C)cn2)ns1
Assay result: 200 to 500 nM

Compound: CC(=O)N(C)c1cccnc1Nc1nc(-c2ccc(OC(C)C)cn2)ns1
Assay result: 500 to 5000 nM

Compound: COc1ccc(-c2nnc(Nc3cc(OC(C)C)ccn3)[nH]2)nc1
Assay result: 500 to 5000 nM

Compound: CC(C)Oc1ccc(-c2nsc(Nc3ncccc3N3CCCC3=O)n2)nc1
Assay result: 500 to 5000 nM

Compound: COc1cccnc1Nc1nc(-c2cc(C(F)(F)F)c(OC3CC3)cn2)ns1
Assay result: 500 to 5000 nM

Compound: Cc1cccnc1Nc1nc(-c2cc(OC(C)C)c(C(F)(F)F)cn2)ns1
Assay result: 200 to 500 nM

Compound: CC(C)Oc1ccc(-c2nsc(Nc3ncccc3N(C)C(=O)C3CC3)n2)nc1
Assay result: 500 to 5000 nM

Compound: CC(C)Oc1ccc(-c2nsc(Nc3ncccc3C(=O)N(C)C)n2)nc1
Assay result: 500 to 5000 nM

Compound: CC(=O)N(C)c1cc(C(F)(F)F)cnc1Nc1nc(-c2cc3c(cn2)OC(C)(C)C3)ns1
Assay result: < 200 nM

Compound: COc1ccc(Nc2nc(-c3ccccn3)ns2)nc1
Assay result: 500 to 5000 nM

Compound: CC(=O)N(C)c1cccnc1Nc1nc(-c2cc(C)ccn2)ns1
Assay result: 500 to 5000 nM

Compound: Cc1cccnc1-c1noc(Nc2ccc(N3CCCC3)cn2)n1
Assay result: 500 to 5000 nM

Compound: Cc1cccnc1Nc1nc(-c2ccc(OC(C)C)cn2)no1
Assay result: 500 to 5000 nM

Compound: c1ccc(-c2nsc(Nc3ccc(N4CCCC4)cn3)n2)nc1
Assay result: 500 to 5000 nM

Compound: c1ccc(-c2ccnc(Nc3nnc(-c4ccccn4)[nH]3)c2)cc1
Assay result: 200 to 500 nM

Compound: CC(=O)N(C)c1cc(C(F)(F)F)cnc1Nc1nc(-c2cc3c(cn2)N(C)CC3)ns1
Assay result: < 200 nM

Compound: CC(=O)N(C)c1cccnc1Nc1nc(-c2cc3c(cn2)N(C)CC3)ns1
Assay result: 500 to 5000 nM

Compound: O=C1CCCN1c1cccnc1Nc1nc(-c2ccc(NC34CC(C3)C4)cn2)ns1
Assay result: 500 to 5000 nM

Compound: CC(=O)N(C)c1ccc(-c2nsc(Nc3ncccc3C)n2)nc1
Assay result: 500 to 5000 nM

Compound: CC(=O)N(C)c1cccnc1Nc1nc(-c2cc(C(F)F)c(OC(C)C)cn2)ns1
Assay result: 200 to 500 nM

Compound: CC(C)Oc1cnc(-c2nsc(Nc3ncccc3C(C)C)n2)cc1C#N
Assay result: < 200 nM

Compound: COC(=O)c1cc(-c2nsc(Nc3ncccc3C(C)C)n2)ncc1OC(C)C
Assay result: < 200 nM

Compound: Cc1cccnc1Nc1nc(-c2cc(OC3CC3)ccn2)ns1
Assay result: < 200 nM

Compound: CC(C)Oc1ccc(-c2nsc(Nc3ncccc3C(C)C)n2)nc1
Assay result: < 200 nM

Compound: Cc1cccnc1Nc1nc(-c2ccc(OC3CCN(C4CC4)CC3)cn2)ns1
Assay result: 500 to 5000 nM

Compound: Cc1ccnc(Nc2nnc(-c3ncccc3C)[nH]2)c1
Assay result: 200 to 500 nM

Compound: CC(C)Oc1ccc(-c2nsc(Nc3ncccc3N3CCCC3)n2)nc1
Assay result: 500 to 5000 nM

Compound: COc1cc(C(C)C)cnc1Nc1nc(-c2ccc(OC(C)C)cn2)ns1
Assay result: 500 to 5000 nM

Compound: CC(=O)N(C)c1cccnc1Nc1nc(-c2ccc(OC3CCN(C(C)C)CC3(F)F)cn2)ns1 (stereo not drawn)
Assay result: 500 to 5000 nM

Compound: Cc1cccnc1Nc1nc(-c2cc(C#N)ccn2)ns1
Assay result: 500 to 5000 nM

Compound: CC(C)Oc1cccnc1-c1nsc(Nc2cc(N3CCCC3)ccn2)n1
Assay result: 500 to 5000 nM
